src = patent EP4703358A1

molecular target: GSPT1 protein (Homo sapiens, UniProt P15170+Q96SW2); construct: host or cells: KG-1 cells; assay: Degradation of GSPT1 in KG-1 cells (Western blot); type: cell-based; settings: KG-1 cells, compound concentration 200 nM, 4 hours
Sequence (P15170 whole entry): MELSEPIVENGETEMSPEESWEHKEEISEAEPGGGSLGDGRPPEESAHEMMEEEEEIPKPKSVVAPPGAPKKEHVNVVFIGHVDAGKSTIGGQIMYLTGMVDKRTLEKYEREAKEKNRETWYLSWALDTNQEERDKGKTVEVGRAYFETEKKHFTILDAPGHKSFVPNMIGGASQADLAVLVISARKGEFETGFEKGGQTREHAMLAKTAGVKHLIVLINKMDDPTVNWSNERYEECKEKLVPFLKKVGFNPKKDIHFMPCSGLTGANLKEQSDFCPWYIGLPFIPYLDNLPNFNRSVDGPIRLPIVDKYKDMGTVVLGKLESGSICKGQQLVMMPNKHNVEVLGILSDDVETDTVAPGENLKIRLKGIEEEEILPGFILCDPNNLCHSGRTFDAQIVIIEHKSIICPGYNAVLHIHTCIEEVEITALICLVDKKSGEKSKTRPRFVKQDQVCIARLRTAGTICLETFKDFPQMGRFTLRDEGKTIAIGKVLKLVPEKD
Sequence (Q96SW2 whole entry): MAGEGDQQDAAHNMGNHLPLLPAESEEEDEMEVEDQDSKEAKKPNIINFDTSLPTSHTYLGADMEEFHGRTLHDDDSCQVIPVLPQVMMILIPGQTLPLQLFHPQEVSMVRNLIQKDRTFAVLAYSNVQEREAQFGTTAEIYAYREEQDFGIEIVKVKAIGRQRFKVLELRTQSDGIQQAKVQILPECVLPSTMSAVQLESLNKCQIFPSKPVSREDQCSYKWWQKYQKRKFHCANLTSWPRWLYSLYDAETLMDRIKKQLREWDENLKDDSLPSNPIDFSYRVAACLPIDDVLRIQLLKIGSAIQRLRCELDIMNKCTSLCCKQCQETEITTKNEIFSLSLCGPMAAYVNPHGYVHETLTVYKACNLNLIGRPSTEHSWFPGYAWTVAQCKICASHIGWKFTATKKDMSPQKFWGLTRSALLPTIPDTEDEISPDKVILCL
Sequence (Q16531 whole entry partner): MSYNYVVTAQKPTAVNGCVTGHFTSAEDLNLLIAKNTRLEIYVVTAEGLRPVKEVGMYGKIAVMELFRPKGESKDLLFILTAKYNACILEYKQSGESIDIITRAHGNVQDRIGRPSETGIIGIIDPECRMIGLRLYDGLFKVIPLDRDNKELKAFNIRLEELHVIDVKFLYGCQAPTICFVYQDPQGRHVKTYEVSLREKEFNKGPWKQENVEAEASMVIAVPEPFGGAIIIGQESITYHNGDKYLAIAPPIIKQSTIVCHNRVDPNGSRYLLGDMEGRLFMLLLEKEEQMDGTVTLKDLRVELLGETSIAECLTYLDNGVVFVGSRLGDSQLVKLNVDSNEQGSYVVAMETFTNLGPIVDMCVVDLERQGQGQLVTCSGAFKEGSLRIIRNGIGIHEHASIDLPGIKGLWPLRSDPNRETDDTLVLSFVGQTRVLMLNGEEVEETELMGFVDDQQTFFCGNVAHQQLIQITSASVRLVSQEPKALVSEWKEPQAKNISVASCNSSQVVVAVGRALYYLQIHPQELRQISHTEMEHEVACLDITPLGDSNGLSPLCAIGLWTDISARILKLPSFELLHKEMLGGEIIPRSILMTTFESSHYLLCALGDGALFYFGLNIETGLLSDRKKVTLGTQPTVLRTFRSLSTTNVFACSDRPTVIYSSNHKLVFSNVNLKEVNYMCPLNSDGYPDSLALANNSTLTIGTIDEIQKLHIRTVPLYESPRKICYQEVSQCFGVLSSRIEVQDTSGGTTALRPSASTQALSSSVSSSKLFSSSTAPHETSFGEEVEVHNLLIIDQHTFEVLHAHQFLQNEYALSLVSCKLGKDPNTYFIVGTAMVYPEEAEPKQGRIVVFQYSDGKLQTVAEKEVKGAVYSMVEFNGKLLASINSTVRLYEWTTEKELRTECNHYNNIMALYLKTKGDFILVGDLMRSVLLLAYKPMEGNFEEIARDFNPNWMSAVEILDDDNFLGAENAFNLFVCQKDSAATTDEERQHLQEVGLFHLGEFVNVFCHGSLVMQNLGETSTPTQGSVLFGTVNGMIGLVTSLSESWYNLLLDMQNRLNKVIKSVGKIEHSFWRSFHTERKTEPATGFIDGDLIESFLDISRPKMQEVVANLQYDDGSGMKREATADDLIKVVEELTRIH
Quantity Measured: percent GSPT1 degradation at 0.2 µM

# annotated cases, reported percent GSPT1 degradation at 0.2 µM shown
O=C1CCC(N2Cc3cc(CNC(=O)C4=Cc5c(F)cccc5OC4)ccc3C2=O)C(=O)N1 (stereo not shown) ... > 80%
C#Cc1ccc2c(c1)C=C(C(=O)NCc1ccc3c(c1)CN(C1CCC(=O)NC1=O)C3=O)CO2 (stereo not shown) ... 50 to 80%
C=CC(=O)Nc1ccc2c(c1)C=C(C(=O)NCc1ccc3c(c1)CN(C1CCC(=O)NC1=O)C3=O)CO2 (stereo not shown) ... 25 to 50%
Nc1ccc2c(c1)C=C(C(=O)NCc1ccc3c(c1)CN(C1CCC(=O)NC1=O)C3=O)CO2 (stereo not shown) ... > 80%
Cc1cc(F)cc2c1OCC(C(=O)NCc1ccc3c(c1)CN(C1CCC(=O)NC1=O)C3=O)=C2 (stereo not shown) ... > 80%

Would you mind listing percent GSPT1 degradation at 0.2 µM for each of the following compounds?
1. O=C1CCC(N2Cc3cc(CNC(=O)C4COc5ccccc5C4)ccc3C2=O)C(=O)N1 (stereo not shown)
2. COc1cccc2c1C=C(C(=O)NCc1ccc3c(c1)CN(C1CCC(=O)NC1=O)C3=O)CO2 (stereo not shown)

// result
> 80%
> 80%
